Data origin: the supplement of paper PMC12764529

experiment: folding stability dG unfold (combined trypsin and chymotrypsin); higher = more stable
Below, each entry is listed with its recorded folding stability dG unfold.

- primary_sequence: "SAGGSAGGSAGGDERVEVFEFDAPGGYRVRLVDFGDLALVAFISPDGRPAVIPVPRELLSAGGSAGGSAGGS [r10_1075_TrMRF]"
  u: "kcal/mol"
  bound_operator: "="
  folding stability dG unfold: 1.41
- primary_sequence: "SMKVYVKVLPPEYAVAYIYTDKKYEIPIPTTDLEEARAQIEEIVNEIEKRTGVKAEVEITEVAPDTKIPLSA [r9_786_JUSTAS]"
  u: "kcal/mol"
  bound_operator: "="
  folding stability dG unfold: 0.74
- primary_sequence: "SAGGSAGGNMIPVKARMKWPDGKEFPFEIMVQYQPDGQMQIEIQNPGDGETVTFPNMKLIDVEISAGGSAGG [r6_255_TrROS]"
  u: "kcal/mol"
  bound_operator: "="
  folding stability dG unfold: 0.469
- primary_sequence: "SAGGSAGGSAGGRIRLPGWEIEDVKVYETGDKPYYTITYKNPNGKPKKMLMPADDLDDFSAGGSAGGSAGGS [r10_645_TrROS]"
  u: "kcal/mol"
  bound_operator: "="
  folding stability dG unfold: -0.618
- primary_sequence: "SAGGSAGGSGSLEKVFTGENKIITIKYLPDGKVIITLHDPSTPKPIAVIEAKPSEIEEILKKESAGGSAGGS [r20_129_TrMRF]"
  u: "kcal/mol"
  bound_operator: "="
  folding stability dG unfold: 1.76
- primary_sequence: "SAGGSAGGKLKKFKIKEIKIEKNKETNTYTVTITLENGEKLTITAKSKEDAEKALRKLKEAGLLSAGGSAGG [r6_65_TrROS_Hall]"
  u: "kcal/mol"
  bound_operator: "="
  folding stability dG unfold: 3.02
- primary_sequence: "SASLVVRLPDGTEILFENLSLEEVVKLFDGGEIEIEPVPKLPVVNASSLEEAEEIAEKLKPDFVITLSGSAG [r14_445_TrMRF]"
  u: "kcal/mol"
  bound_operator: "="
  folding stability dG unfold: 1.61
- primary_sequence: "SAGGSAGGSAGGMVIRLEDGRTLVFETREEAEEAAKALAEELGLKEVKVEIVEVPLEELPSAGGSAGGSAGG [r7_839_TrROS_Hall]"
  u: "kcal/mol"
  bound_operator: "="
  folding stability dG unfold: 2.4
- primary_sequence: "SAGGGMSVSELKKFFPNLKPGATFVLKDPNSDRTGTGTLLSDGTIKVQLPGSEVTVPDDTLVVSISASAGGS [r8_162_JUSTAS]"
  u: "kcal/mol"
  bound_operator: "="
  folding stability dG unfold: 0.321
- primary_sequence: "SAGPWRIKEVDPDSYTIEIRFGDRPIEIKIPPGKEPSIMIEMDPDGHFQLTIRVPDRTRTFTIPFDDIRSAG [r5_500_TrROS]"
  u: "kcal/mol"
  bound_operator: "="
  folding stability dG unfold: 0.674
- primary_sequence: "SAGMITRTITTVDPVDPALVAAISPDLVFPDGSTVSRDGDRLVITTPVTLALPPSPDPAGQLVLPTAASAGG [r19_148_JUSTAS]"
  u: "kcal/mol"
  bound_operator: "="
  folding stability dG unfold: -0.00544
- primary_sequence: "SAGGSAGGSAGGSLKVEVTLDPETNELTVRTTLTLPPPPPPPPTTTTTTTTTLAPGETASAGGSAGGSAGGS [r10_86_TrROS_Hall]"
  u: "kcal/mol"
  bound_operator: "="
  folding stability dG unfold: 0.0927
- primary_sequence: "SAGGMKIYYISKGKKYYVKVILPNNEIIEIETESLEEAIKKAKEELIKKYPNIPPENFKIDYIIPLPESAGG [r13_887_TrMRF]"
  u: "kcal/mol"
  bound_operator: "="
  folding stability dG unfold: 4.18
- primary_sequence: "SAGGGHMVNVTLTGSSIEEIKKELEELAKKYGFVINPKKVEKLPGPKYKITLNIKAPDEVVELIKKKSAGGS [r8_357_JUSTAS]"
  u: "kcal/mol"
  bound_operator: "="
  folding stability dG unfold: 1.72
- primary_sequence: "SMLKEIPITVPEEGEVVTVNIEELAKEQGLDPNNVTVTVTSSGPGKVYKITISSNGITITEVGNVPTALLSA [r9_819_JUSTAS]"
  u: "kcal/mol"
  bound_operator: "="
  folding stability dG unfold: 0.717
- primary_sequence: "SAGGSAGGSAGTKTITLPNGLTLTIKPDEPVTITLVKVDPETNEIVEEKTITVYVKEDDLSAGGSAGGSAGG [r11_497_TrROS_Hall]"
  u: "kcal/mol"
  bound_operator: "="
  folding stability dG unfold: 1.2
- primary_sequence: "SADPLSSILSQALSVEFDPETGKVTITTKDKSIVEKALEEGAENATLTESEDDIYTATIDLPPLPEGVLSAG [r14_115_TrMRF]"
  u: "kcal/mol"
  bound_operator: "="
  folding stability dG unfold: 0.12
- primary_sequence: "KIEIKVHPDGTLLIKAPLELIDLLIKLLKEKGYDAKILKIDPENGYVLIPVKPKPPPIPKPTPEELLKALFS [r1_78_TrMRF]"
  u: "kcal/mol"
  bound_operator: "="
  folding stability dG unfold: 3.35
- primary_sequence: "SAGMKPIVELLKKEPNPKVILVEVFPTGGEAKIVVKDKVYVFPVKPGPGRRVLVVDPDGKILEVKPFPVSAG [r5_329_TrMRF]"
  u: "kcal/mol"
  bound_operator: "="
  folding stability dG unfold: 0.708
- primary_sequence: "SAGAAKEVFHETFPHPAGGPVELARNPGLDWVVLYNAGTGEPTVVPVAADETLVFPAAPGGASTFAVTSAGG [r19_118_TrMRF]"
  u: "kcal/mol"
  bound_operator: "<"
  folding stability dG unfold: -1
- primary_sequence: "SAEVVIVIEPGMTEEQVRARLKAALEEALRKGKKVKKIVVKSEEAARRIRDLLKELGVPEEDVEVVLLPSAG [r14_589_TrROS_Hall]"
  u: "kcal/mol"
  bound_operator: "="
  folding stability dG unfold: 4.93
- primary_sequence: "SAGGPKLYIMIPPELRDNFPDIEIRPVEIPDDNIEIEIKFPGKKVTFPIYIFDPDGKIVEPQTITIEPSAGG [r13_129_TrROS]"
  u: "kcal/mol"
  bound_operator: "="
  folding stability dG unfold: 0.226
- primary_sequence: "KKKKKKKKKKKKKEKVKVRIRIRLKVKDKETGEWKEIEVEIEIEMSKEEAEEIAKKLAEKYNFEIVEIEIES [r1_488_TrROS_Hall]"
  u: "kcal/mol"
  bound_operator: "="
  folding stability dG unfold: 3.28
- primary_sequence: "SAMKIKVPPGAEIITEDGEKIEPGQEVEVTDIEFDEETGEVHITVKIKNPETGEEIEEKVTIRFPKEEESAG [r14_258_TrROS_Hall]"
  u: "kcal/mol"
  bound_operator: "="
  folding stability dG unfold: 1.09
- primary_sequence: "SAMETYEYPVTGDSATFTVPVPPDHIAKVTVHYPSGSTDTVVPPGVTTTFTVPSSNATVTITIYPRSALSAG [r14_882_JUSTAS]"
  u: "kcal/mol"
  bound_operator: "="
  folding stability dG unfold: 1.34
- primary_sequence: "SAGGSAGGSAGGPEVERFRIPGDNVLVEVVRLEDERIARITFPDGSQLTVPLPPGWEAFSAGGSAGGSAGGS [r10_976_TrMRF]"
  u: "kcal/mol"
  bound_operator: "="
  folding stability dG unfold: 0.948
- primary_sequence: "SMNIVEIEVEEKIIGDTTTITIPIKVNGPAVSEEEIKKIVEDIFKKKGLKINIKIEKDPNSGVITITIIESA [r9_717_JUSTAS]"
  u: "kcal/mol"
  bound_operator: "="
  folding stability dG unfold: 2.33
